# target_or_system: 5-hydroxytryptamine receptor 6 (Homo sapiens)
# Sequence (P50406 whole entry): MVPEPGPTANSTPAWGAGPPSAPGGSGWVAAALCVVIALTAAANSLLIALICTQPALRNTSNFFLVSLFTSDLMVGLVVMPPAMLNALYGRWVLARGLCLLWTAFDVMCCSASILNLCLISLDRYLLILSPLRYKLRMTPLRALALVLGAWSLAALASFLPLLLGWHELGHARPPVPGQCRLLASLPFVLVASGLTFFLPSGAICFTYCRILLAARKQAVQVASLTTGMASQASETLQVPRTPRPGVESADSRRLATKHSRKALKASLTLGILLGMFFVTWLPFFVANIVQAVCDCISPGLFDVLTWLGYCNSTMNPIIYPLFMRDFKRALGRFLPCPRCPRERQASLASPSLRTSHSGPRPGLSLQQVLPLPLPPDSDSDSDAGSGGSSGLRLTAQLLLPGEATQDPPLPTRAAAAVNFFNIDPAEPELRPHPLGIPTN
# assay_name: Antagonist activity at human recombinant 5-HT6 receptor expressed in CHO-K1 cells assessed as inhibition of serotonin-induced response treated 15 to 30 mins before agonist challenge by luminescence analysis
# Type: cell-based
Please respond with reported Kb for every item in the list.
# number only, unit nM dropped from output

Ask | // lookup Kb for "Cc1c(S(=O)(=O)NCCCCN2CCC(c3noc4cc(F)ccc34)CC2)sc2ccc(Cl)cc12"
Reply | 22

Ask | Queued: "O=S(=O)(NCCCCN1CCC(c2noc3cc(F)ccc23)CC1)c1ccc2cc(Cl)ccc2c1"
Reply | 8.3

Ask | Queued: "Cc1c(S(=O)(=O)NCCCCN2CCC(c3noc4cc(F)ccc34)CC2)sc2ccc(F)cc12"
Reply | 14

Ask | Queued: "Cc1cccc(S(=O)(=O)NCCCN2CCC(c3noc4cc(F)ccc34)CC2)c1"
Reply | 2.5

Ask | Queued: "O=S(=O)(NCCCCN1CCC(c2noc3cc(F)ccc23)CC1)c1cccc2ccccc12"
Reply | 17

Values compiled from ChEMBL document CHEMBL3286108.
